Source: patent US20180036441A1

- System: T1, MUC1-SEA-His protein (UniProt P15941 1039-1148, limits assumed)
- T1 construct: domain: SEA; Recombinant antigen used for ELISA coating and as Biacore analyte; also called MUC-SEA-His; antigen protein; not shown: His tag
- T1 sequence (looked up): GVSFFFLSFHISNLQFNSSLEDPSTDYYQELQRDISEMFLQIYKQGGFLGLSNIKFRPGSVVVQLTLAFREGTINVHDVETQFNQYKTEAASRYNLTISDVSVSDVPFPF
- Assay comment: SPR Biacore T200, antibody captured, antigen as analyte
Catalogue of koff values
Don't forget the unit after the value.

1. VH2 + VL4 (antibody, V domains shown, Humanized IgG expressed in HEK293; also called humanized antibody VH2+VL4) VH: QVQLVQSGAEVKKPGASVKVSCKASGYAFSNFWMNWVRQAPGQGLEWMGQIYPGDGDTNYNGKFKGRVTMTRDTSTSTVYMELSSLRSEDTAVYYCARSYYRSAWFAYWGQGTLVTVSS VL: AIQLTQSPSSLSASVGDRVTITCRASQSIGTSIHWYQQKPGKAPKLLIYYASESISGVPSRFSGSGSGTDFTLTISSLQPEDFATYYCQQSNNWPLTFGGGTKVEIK	0.00741 s⁻¹
2. VH5 + VL3 (antibody, V domains shown, Humanized IgG expressed in HEK293; also called humanized antibody VH5+VL3) VH: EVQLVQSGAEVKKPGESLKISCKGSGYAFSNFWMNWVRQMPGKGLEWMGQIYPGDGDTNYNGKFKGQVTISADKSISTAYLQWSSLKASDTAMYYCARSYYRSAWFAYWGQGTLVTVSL VL: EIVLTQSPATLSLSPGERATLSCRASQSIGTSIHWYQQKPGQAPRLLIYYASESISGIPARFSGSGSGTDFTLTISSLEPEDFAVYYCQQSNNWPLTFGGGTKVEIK	0.0164 s⁻¹

-- ask Which koff is listed for VH2 + VL3 (antibody, V domains shown, Humanized IgG expressed in HEK293; also called humanized antibody VH2+VL3) VH: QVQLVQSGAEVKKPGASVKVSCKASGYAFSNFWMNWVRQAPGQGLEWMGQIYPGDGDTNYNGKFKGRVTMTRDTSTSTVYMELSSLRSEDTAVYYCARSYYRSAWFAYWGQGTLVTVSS VL: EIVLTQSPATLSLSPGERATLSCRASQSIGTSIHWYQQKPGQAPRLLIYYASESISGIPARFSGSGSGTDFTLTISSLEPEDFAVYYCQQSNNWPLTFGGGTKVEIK ?
-- reply 0.0124 s⁻¹
